src = patent US11555055B2

Target: T1, recombinant human insulin-degrading enzyme (IDE) (human, UniProt P14735 42-1019, limits assumed)
T1 construct: Used at 1 nM in the in vitro activity assays; immobilised on plates for phage panning
T1 sequence (looked up): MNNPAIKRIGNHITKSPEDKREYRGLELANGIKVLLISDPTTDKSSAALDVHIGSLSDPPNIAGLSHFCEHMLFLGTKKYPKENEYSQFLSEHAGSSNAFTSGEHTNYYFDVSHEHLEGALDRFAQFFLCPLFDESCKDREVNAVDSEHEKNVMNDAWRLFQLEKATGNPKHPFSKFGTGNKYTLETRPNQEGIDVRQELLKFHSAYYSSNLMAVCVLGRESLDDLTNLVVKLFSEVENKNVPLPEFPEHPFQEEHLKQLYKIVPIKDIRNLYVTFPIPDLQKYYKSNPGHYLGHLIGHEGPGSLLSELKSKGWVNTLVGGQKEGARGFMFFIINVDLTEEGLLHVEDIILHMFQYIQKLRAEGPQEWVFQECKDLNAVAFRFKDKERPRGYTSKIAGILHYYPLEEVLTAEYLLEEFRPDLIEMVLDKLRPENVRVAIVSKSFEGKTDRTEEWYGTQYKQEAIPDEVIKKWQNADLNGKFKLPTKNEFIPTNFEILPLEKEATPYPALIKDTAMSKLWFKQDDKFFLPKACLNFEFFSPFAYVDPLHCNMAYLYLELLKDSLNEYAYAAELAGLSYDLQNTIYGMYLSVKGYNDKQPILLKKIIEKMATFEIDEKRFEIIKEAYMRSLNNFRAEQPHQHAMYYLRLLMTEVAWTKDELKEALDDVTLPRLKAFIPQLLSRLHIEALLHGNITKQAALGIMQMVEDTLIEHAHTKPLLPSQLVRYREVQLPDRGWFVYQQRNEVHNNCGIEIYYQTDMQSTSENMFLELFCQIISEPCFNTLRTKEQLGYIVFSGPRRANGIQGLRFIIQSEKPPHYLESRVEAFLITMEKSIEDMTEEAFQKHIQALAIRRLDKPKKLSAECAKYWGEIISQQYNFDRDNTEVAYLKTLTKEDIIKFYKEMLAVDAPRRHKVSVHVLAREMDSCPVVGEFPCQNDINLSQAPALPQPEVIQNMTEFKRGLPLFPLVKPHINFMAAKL
Test: IDE activity assay, FAβB degradation (fluorescence polarization)
Bridges are numbered along the chain shown (N, C = ends). Where no end group is shown, it is not given here.
measurement.type: pKi
One number for each entry, as −log10 of the molar value.

Task: Look up pKi of QSLPWCYPHCVT-NH2 (disulfide 6-10 (inferred), also called cyclized P12-3A) [P12-3A, deliberately cyclized, highly pure cosmetic-grade version] and report it.
Result: 5.68
